Item-by-item account of % inhibition of BACE1 activity, short FRET substrate
target: human BACE1 ECD; further: test concentration or dose not given here
Sequence (single chain, as listed by the source limits assumed): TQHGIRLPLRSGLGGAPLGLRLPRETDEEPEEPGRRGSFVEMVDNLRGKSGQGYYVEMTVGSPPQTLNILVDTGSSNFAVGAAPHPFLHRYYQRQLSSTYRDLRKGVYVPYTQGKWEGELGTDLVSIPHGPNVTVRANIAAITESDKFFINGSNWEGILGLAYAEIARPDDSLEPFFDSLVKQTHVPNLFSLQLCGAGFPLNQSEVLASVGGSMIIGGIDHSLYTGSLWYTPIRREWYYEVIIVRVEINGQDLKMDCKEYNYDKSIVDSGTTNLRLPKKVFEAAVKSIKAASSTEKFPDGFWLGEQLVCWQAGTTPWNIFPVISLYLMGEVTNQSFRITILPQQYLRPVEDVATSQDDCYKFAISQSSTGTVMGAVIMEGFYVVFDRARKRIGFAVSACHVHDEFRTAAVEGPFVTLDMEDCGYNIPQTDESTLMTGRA
experimentDescription: cell-based or functional assay
Answer format: numeric, % implied, no suffix.

See these solved cases before continuing.
• 5894 (antibody, V domains shown, anti-BACE1 IgG) VH: QVQLVQSGAEVKKPGSSVKVSCKASGGTFSGYAISWVRQAPGQGLEWMGNIIPGFGTANYAQKFQGRVTITADESTSTAYMELSSLRSEDTAVYYCARSGGTKYGMLDVWGQGTMVTVSS VL: EIVMTQSPATLSVSPGERATLSCRASQSVGSNLAWYQQKPGQAPRLLIYGASTRATGIPARFSGSGSGTEFTLTISSLQSEDFAVYYCQQLYTWPPRTFGGGTKVEIK = 69
• 5890 (antibody, V domains shown, anti-BACE1 IgG) VH: QVQLVQSGAEVKKPGSSVKVSCKASGGTFSSYAISWVRQAPGQGLEWMGNIIPGFGTANYAQKFQGRVTITADESTSTAYMELSSLRSEDTAVYYCARSGGTKYGMLDVWGQGTMVTVSS VL: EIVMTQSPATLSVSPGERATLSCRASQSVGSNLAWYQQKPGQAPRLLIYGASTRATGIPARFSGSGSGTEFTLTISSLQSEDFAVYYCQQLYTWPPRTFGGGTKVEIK = 66
• 5878 (antibody, V domains shown, anti-BACE1 IgG) VH: EVQLLESGGGLVQPGGSLRLSCAASGFTFSSYAMSWVRQAPGKGLEWVSAISGSGISTPYADSVKGRFTISRDNSKNTLYLQMNSLRAEDTAVYYCAKGAGHGSYVKGWFDPWGQGTLVTVSS VL: EIVLTQSPATLSLSPGERATLSCRASQSVSSYLAWYQQKPGQAPRLLIYDASNRATGIPARFSGSGSGTDFTLTISSLEPEDFAVYYCQQSVNFPFTFGGGTKVEIK = 99
• 5536 (antibody, V domains shown, anti-BACE1 IgG) VH: QVQLVQSGAEVKKPGSSVKVSCKASGGTFSSYAISWVRQAPGQGLEWMGSIIPIFGTANYAQKFQGRVTITADESTSTAYMELSSLRSEDTAVYYCARSGGTKYGMLDVWGQGTMVTVSS VL: EIVMTQSPATLSVSPGERATLSCRASQSVGSNLAWYQQKPGQAPRLLIYGASTRATGIPARFSGSGSGTEFTLTISSLQSEDFAVYYCQQSYLWPPRTFGGGTKVEIK = 32

What value of measured % inhibition of BACE1 activity, short FRET substrate is listed for 5892 (antibody, V domains shown, anti-BACE1 IgG) VH: QVQLVQSGAEVKKPGSSVKVSCKASGGTFSSYAISWVRQAPGQGLEWMGNIIPIFGTATYAQKFQGRVTITADESTSTAYMELSSLRSEDTAVYYCARSGGTKYGMLDVWGQGTMVTVSS VL: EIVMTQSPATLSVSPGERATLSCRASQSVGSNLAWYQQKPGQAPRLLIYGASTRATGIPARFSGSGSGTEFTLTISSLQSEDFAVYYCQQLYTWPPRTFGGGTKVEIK ?
64
